Entry source: paper PMC10244618

B1: NF2 (merlin) isoform 7, human, full length (507 aa, lacks exons 2-3 = isoform-1 residues 39-121; exon-16 C-terminus), P35240-4 (parent)
chain: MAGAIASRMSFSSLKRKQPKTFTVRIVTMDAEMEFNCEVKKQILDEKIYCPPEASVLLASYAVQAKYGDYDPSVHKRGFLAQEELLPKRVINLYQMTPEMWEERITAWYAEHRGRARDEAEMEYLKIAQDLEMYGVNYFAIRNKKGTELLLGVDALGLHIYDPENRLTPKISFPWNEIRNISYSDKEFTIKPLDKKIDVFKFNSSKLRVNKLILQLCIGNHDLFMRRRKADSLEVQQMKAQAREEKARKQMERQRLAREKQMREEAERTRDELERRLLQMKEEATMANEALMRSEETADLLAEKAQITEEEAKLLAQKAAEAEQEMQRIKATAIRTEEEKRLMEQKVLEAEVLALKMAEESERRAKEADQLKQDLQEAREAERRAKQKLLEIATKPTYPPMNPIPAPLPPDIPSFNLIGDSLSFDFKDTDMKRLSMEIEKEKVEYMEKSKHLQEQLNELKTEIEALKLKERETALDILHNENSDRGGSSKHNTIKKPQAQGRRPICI

Variants of: B1
Assay: reverse yeast two-hybrid deep mutational scan (rY2H-seq): NF2 isoform 7 mutant library as bait mated with wild-type prey strains; selection on medium lacking adenine for non-interacting pairs; NextSeq paired-end sequencing; enrichment vs …
Settings: with KDM1A (lysine-specific histone demethylase 1A; the table's label AOF2 is a gene synonym of KDM1A), O60341; yeast diploids after mating (RBait_S3 x RPrey_S3), 30 °C, selection for reporter genes on NB agar; human ABL2 co-expressed as the kinase-dead K35M mutant …; HIGHER = WEAKER BINDING (the opposite of display enrichments): higher = stronger loss of interaction: reverse Y2H selects yeast in which bait and prey do NOT interact (growth without adenine), so a …; hits-only table; scale: rY2H score; numbering: uniprot, sequence starts at 1
value_type: enrichment
Field format: numeric only.

Consider the worked cases shown below.
mutation_list	value_type	val
S361P	enrichment	2
I418W	enrichment	19.8

So what does the record say about enrichment for I171D ?
5.35

Field request: enrichment | item: E382A
2.37

Record request: enrichment value, item R263K
1.91

Any idea what its enrichment is? The variant is M326E
6.72

Entry under review: E344K . Reported enrichment?
1.57

Return reported enrichment; argument: T168L
7.24

Item A312L has what recorded enrichment?
3.21

What does the data say about its enrichment? Entry: V347E
3.23

I'd like to know its enrichment. The variant in question is L300P
4.3

// lookup enrichment for E272A
2.65

# enrichment lookup, item E265L
7.66

Name the reported enrichment value associated with the variant Q345K
2.79
